- targetOrSystem: T1, human IL-6 (Interleukin-6) (human, UniProt P05231 30-212)
- T1 construct: also called 001 IL-6 antigen
- assaySummary: Biacore (SPR), antibody captured on anti-human Fc, IL-6 as analyte
// reported koff for each item listed
Use s⁻¹ as the unit, but write only the number.

Examples with their reported koff follow.
- binder: "Anti-IL-6 Ab BA848 (antibody, V domains shown, Humanized monoclonal antibody) VH: EVQLVQSGAEVKKPGASVKVSCKASGFTFSSFAMSWVRQAPGQGLEWMGEISSGGSYTYYPDTVTGRFTISRDNAKNSLYLQMNSLRAEDTAVYYCARGLWGYYALDYWGQG VL: AIQLTQSPSSLSASVGDRVTITCSASSSVSYMYWYQQKPGQAPRLLIYDTSNLASGIPPRFSGSGYGTDFTLTINNIESEDAAYYFCQQWSGYPYTFGQG"
  reported: 0.000158
- binder: "Anti-IL-6 Ab BA808 (antibody, V domains shown, Humanized monoclonal antibody) VH: QVQLVQSGAEVKKPGASVKVSCKASGFTFSSFAMSWIRQSPSRGLEWLGEISSGGSYTYYPDTVTGRFTISRDNAKNSLYLQMNSLRAEDTAVYYCARGLWGYYALDYWGQG VL: EIVLTQSPATLSVSPGERATLSCSASSSVSYMYWYLQKPGQSPQLLIYDTSNLASGIPPRFSGSGYGTDFTLTINNIESEDAAYYFCQQWSGYPYTFGQG"
  reported: "6.59e-05"
- binder: "Anti-IL-6 Ab BA939 (antibody, V domains shown, Humanized monoclonal antibody) VH: QVQLVQSGAEVKKPGASVKVSCKASGFTFSSFAMSWVRQAPGQGLEWMGEISSGGSYTYYPDTVTGRFTISRDNAKNSLYLQMNSLRAEDTAVYYCARGLWGYYALDYWGQG VL: DIQMTQSPSSLSASVGDRVTITCSASSSVSYMYWYQQKPGQAPRLLIYDTSNLASGIPPRFSGSGYGTDFTLTINNIESEDAAYYFCQQWSGYPYTFGQG"
  reported: "5.76e-05"
- binder: "Anti-IL-6 Ab BA890 (antibody, V domains shown, Humanized monoclonal antibody) VH: QVQLVQSGAEVKKPGASVKVSCKASGFTFSSFAMSWIRQPPGKGLEWIGEISSGGSYTYYPDTVTGRFTISRDNAKNSLYLQMNSLRAEDTAVYYCARGLWGYYALDYWGQG VL: AIQLTQSPSSLSASVGDRVTITCSASSSVSYMYWYQQKPGQAPRLLIYDTSNLASGIPPRFSGSGYGTDFTLTINNIESEDAAYYFCQQWSGYPYTFGQG"
  reported: "6.44e-05"
- binder: "Anti-IL-6 Ab BA840 (antibody, V domains shown, Humanized monoclonal antibody) VH: QVQLVQSGAEVKKPGASVKVSCKASGFTFSSFAMSWIRQPPGKGLEWIGEISSGGSYTYYPDTVTGRFTISRDNAKNSLYLQMNSLRAEDTAVYYCARGLWGYYALDYWGQG VL: EIVLTQSPDFQSVTPKEKVTITCSASSSVSYMYWYLQKPGQSPQLLIYDTSNLASGIPPRFSGSGYGTDFTLTINNIESEDAAYYFCQQWSGYPYTFGQG"
  reported: 0.000237

Consider now this further binder.
Fill in: koff of Anti-IL-6 Ab BA802 (antibody, V domains shown, Humanized monoclonal antibody) VH: QVQLVQSGAEVKKPGASVKVSCKASGFTFSSFAMSWIRQSPSRGLEWLGEISSGGSYTYYPDTVTGRFTISRDNAKNSLYLQMNSLRAEDTAVYYCARGLWGYYALDYWGQG VL: EIVLTQSPDFQSVTPKEKVTITCSASSSVSYMYWYLQKPGQSPQLLIYDTSNLASGVPSRFSGSGSGTDFTLTISSLQPEDFATYYCQQWSGYPYTFGQG is ___
5.88e-05
